# System: Jurkat T cells
# Assay type: cell-based, human
# conditionsUsed: IL-2 production level in treated group compared to control group; 48 hours treatment, then anti-CD3/anti-CD28 12 hours
Output Criterion met for Relative changed percentage (%) not less than 8%; output Criterion not met otherwise.

Past entries and their recorded results:
Nc1cc[nH]c(=O)n1 : Criterion met
CCCCCCCC/C=C\CCCCCCCC(=O)O : Criterion met
O=C(O)c1cccnc1 : Criterion met
O=C(O)[C@@H]1C[C@@H](O)CN1 [trans-4-Hydroxy-L-proline] : Criterion not met

Note: attention shifts to another entry.
Query string: Quick check, Relative changed percentage (%) >= 8%? O=S(=O)([O-])[O-].[Na+].[Na+] [SODIUM SULFATE]
Result string: Criterion met
